Would you kindly list AUC for each of these molecules?
System: MHH-CALL-4 cells
Experiment: Cytotoxicity assay (resazurin, 72 hours)
Assay type: cell-based
Design: unit not given beside the values
Details: area under the dose-response curve

[Q] # input molecule: CCS(=O)(=O)N1CC(CC#N)(n2cc(-c3nc(Nc4ccc(C(=O)NCCCCCNc5cccc(C6CCC(=O)NC6=O)c5)cc4)nc4[nH]ccc34)cn2)C1 (stereo not drawn) ; wanted: its AUC
[A] 136

[Q] Can you handle CCS(=O)(=O)N1CC(CC#N)(n2cc(-c3nc(Nc4ccc(C(=O)NCCN5CCN(c6ccc(C7CCC(=O)NC7=O)cc6)CC5)cc4)nc4[nH]ccc34)cn2)C1 (stereo not drawn) next?
[A] 149

[Q] Next molecule up: N#CC[C@H](C1CCCC1)n1cc(-c2nc(Nc3ccc(C(=O)NCCN4CCN(c5ccc6c(c5)C(=O)N(C5CCC(=O)NC5=O)C6=O)CC4)cc3)nc3[nH]ccc23)cn1 (stereo partly drawn)
[A] 141

[Q] // query: CCS(=O)(=O)N1CC(CC#N)(n2cc(-c3nc(Nc4ccc(C(=O)NCCCCN5CCN(c6ccc(C7CCC(=O)NC7=O)cc6)CC5)cc4)nc4[nH]ccc34)cn2)C1 (stereo not drawn)
[A] 225

[Q] CCS(=O)(=O)N1CC(CC#N)(n2cc(-c3nc(Nc4ccc(C(=O)N5CCC(CN6CCN(c7ccc(C8CCC(=O)NC8=O)cc7)CC6)CC5)cc4)nc4[nH]ccc34)cn2)C1 (stereo not drawn) ?
[A] 199

[Q] Another molecule: CCS(=O)(=O)N1CC(CC#N)(n2cc(-c3nc(Nc4ccc(C(=O)NCCOCCOc5cccc(C6CCC(=O)NC6=O)c5)cc4)nc4[nH]ccc34)cn2)C1 (stereo not drawn)
[A] 132

###

Molecular target: GSPT1 (Homo sapiens, UniProt P15170)
Construct: endogenous in cells; host or cells: MHH-CALL-4
Sequence (P15170 whole entry): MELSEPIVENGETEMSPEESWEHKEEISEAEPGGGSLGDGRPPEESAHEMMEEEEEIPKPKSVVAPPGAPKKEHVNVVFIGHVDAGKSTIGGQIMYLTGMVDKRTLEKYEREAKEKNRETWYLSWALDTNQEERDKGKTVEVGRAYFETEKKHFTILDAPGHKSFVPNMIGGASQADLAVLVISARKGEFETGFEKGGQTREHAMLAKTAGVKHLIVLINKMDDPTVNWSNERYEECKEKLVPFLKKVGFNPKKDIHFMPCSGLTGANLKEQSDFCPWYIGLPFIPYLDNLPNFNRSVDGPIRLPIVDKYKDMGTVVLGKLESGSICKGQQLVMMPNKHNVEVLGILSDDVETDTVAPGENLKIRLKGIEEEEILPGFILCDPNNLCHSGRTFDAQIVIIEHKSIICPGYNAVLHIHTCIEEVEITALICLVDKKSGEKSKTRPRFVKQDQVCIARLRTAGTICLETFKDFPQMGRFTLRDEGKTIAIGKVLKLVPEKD
Assay: Western blot assay, GSPT1 neosubstrate degradation
Type: cell-based
Details: MHHCALL4; 100 nM, 24 h; MHH-CALL-4 cells; vehicle control = 100%
Experimental: Western blot assay: MHH-CALL-4 Cells were washed twice with ice-cold PBS and lysed in RIPA lysis buffer (Sigma) freshly supplemented with Halt™ Protease Inhibitor Cocktail (ThermoFisher) for 15 minutes on ice. The cell pellet was removed by centrifugation at 13,000 g at 4° C. for 15 minutes. Protein concentration was measured by BCA assay (Thermo Fisher Scientific). Proteins were denatured in NuPAGE LDS 4× sample buffer supplemented with reducing agents (Invitrogen). […]
MEASUREMENT_NAME: remaining activity at 0.1 µM
Please answer in the form of a number followed by its unit of measurement.

[Q] Can you look up the measured remaining activity at 0.1 µM of CCCn1cc(-c2nc(Nc3ccc(C(=O)NCCN4CCN(c5cccc6c5C(=O)N(C5CCC(=O)NC5=O)C6=O)CC4)cc3)nc3[nH]ccc23)cn1 (centres unmarked) [Compound 24] for me?
[A] 0%

[Q] One more molecule: CCS(=O)(=O)N1CC(CC#N)(n2cc(-c3nc(Nc4ccc(C(=O)NCCCN5CCC6(CCN(c7ccc(C8CCC(=O)NC8=O)cc7)CC6)C5)cc4)nc4[nH]ccc34)cn2)C1 (centres unmarked) [Compound 56]
[A] 102%

[Q] Ok, now CCS(=O)(=O)N1CC(CC#N)(n2cc(-c3nc(Nc4ccc(C(=O)NCCCCNC(=O)COc5ccc(C6CCC(=O)NC6=O)cc5)cc4)nc4[nH]ccc34)cn2)C1 (centres unmarked) [Compound 15]
[A] 78%

[Q] Same question, CCS(=O)(=O)N1CC(CC#N)(n2cc(-c3nc(Nc4ccc(C(=O)NCCCCCCNc5cccc(C6CCC(=O)NC6=O)c5)cc4)nc4[nH]ccc34)cn2)C1 (centres unmarked) [Compound 3] this time
[A] 84%

[Q] Param item: N#CC[C@@H](C1CCCC1)n1cc(-c2nc(Nc3ccc(C(=O)NCCCN4CCN(c5ccc6c(c5)C(=O)N(C5CCC(=O)NC5=O)C6=O)CC4)cc3)nc3[nH]ccc23)cn1 (some centres unmarked) [Compound 23]
[A] 155%
